# subject-of-test: pEGFR, A431 cells (wildtype EGFR) (Homo sapiens, UniProt P00533)
# Construct: pEGFR (Tyr1068) TR-FRET
# Sequence (P00533 25-1210): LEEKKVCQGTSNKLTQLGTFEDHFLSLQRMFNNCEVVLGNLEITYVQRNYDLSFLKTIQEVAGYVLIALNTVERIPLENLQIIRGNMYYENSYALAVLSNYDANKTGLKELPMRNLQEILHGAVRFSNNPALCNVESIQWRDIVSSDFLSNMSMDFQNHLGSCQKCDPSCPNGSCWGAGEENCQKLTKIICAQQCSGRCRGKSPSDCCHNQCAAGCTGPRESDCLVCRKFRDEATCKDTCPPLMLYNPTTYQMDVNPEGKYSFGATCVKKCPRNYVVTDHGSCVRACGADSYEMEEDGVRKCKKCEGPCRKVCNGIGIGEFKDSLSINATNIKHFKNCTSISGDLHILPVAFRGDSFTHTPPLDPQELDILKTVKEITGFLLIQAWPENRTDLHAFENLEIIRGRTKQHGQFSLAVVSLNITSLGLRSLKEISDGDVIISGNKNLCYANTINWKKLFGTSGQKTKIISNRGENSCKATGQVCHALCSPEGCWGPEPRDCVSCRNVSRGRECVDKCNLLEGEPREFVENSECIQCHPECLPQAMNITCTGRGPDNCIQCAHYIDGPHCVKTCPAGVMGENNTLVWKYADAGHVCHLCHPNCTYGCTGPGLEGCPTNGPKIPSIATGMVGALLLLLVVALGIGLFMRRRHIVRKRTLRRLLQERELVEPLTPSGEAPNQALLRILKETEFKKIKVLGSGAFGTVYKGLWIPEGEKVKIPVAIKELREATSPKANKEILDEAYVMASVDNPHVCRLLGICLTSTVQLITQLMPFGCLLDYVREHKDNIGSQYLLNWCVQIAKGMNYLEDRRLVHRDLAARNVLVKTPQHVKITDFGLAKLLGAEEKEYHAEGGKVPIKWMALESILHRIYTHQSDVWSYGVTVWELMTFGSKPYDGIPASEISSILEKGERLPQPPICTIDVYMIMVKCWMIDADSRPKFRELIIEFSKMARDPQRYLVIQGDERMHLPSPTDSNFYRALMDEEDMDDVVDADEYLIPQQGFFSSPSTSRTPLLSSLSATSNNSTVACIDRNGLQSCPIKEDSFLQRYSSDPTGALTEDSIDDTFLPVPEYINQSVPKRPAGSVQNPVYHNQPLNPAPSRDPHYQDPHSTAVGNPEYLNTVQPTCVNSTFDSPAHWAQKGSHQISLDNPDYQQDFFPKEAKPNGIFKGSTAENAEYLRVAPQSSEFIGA
# assay-name: Cellular EGFR phosphorylation assay (LANCE Ultra TR-FRET) in A431 cells
# Assay type: cell-based
# assay-conditions: 4 hours at 37° C., 40 ng/mL EGF for the final 10 minutes, read-out: A431 pEGFR IC50
# Protocol: Cellular EGFR Phosphorylation Assays EGFR phosphorylation assays were conducted in NSCLC cells with EGFR activation mutations. […] EGFR phosphorylation was measured using phospho-EGFR (Try1068) LANCE Ultra TR-FRET Detection Kit (TRF4015M) from PerkinElmer according to manufacturer's instructions. […] After 4-6 hours of incubation at room temperature, plates were then read on a TECAN Sparks multimode microplate reader. […]
measured-endpoint: pIC50
// pIC50 here means minus log10 of the molar concentration (mol/L)

The molecule listed as CCOc1nn(CCO)c2c1/C=C/c1n[nH]c3cnc(cc13)-c1cnn(C)c1O[C@@H](C)CN(C1CC1)C2 shows pIC50 equal to 7.85

For record CCOc1nn(CCO)c2c1/C=C/c1n[nH]c3cnc(cc13)-c1cnn(C)c1OC[C@H](C)N(CC)C2 the listed pIC50 is 7.15

Record summary for CCOc1nn(CCO)c2c1/C=C/c1n[nH]c3c(C)nc(cc13)-c1c(C)nn(C)c1OCCN(C)C2 : reported pIC50 = 7.27

What the record says about CCOc1nn(CCO)c2c1/C=C/c1n[nH]c3cnc(cc13)-c1c(C)nn(C)c1O[C@@H](C)[C@H]1CCCN1C2 : pIC50 is 8.02

The recorded pIC50 for CCOc1nn(CCO)c2c1/C=C/c1n[nH]c3cnc(cc13)-c1cnn(C)c1O[C@H](C)CN(CC)C2 is 7.37

Measured pIC50, CCN1Cc2c(c(OCC#N)nn2[C@@H](C)CO)/C=C/c2n[nH]c3cnc(cc23)-c2c(C)nn(C)c2O[C@H](C)C1 : 7.67

Short answer for CCOc1nn([C@H](C)CO)c2c1/C=C/c1n[nH]c3cnc(cc13)-c1c(C)nn(C)c1O[C@@H](C)CN(C)C2 : pIC50 was 7.96

// field: pIC50; key: CCNc1nn([C@@H](C)CO)c2c1/C=C/c1n[nH]c3cnc(cc13)-c1c(C)nn(C)c1O[C@@H](C)CN(C)C2 ; value = 7.71

pIC50 reported for this molecule Cc1nn(C)c2c1-c1cc3c(n[nH]c3cn1)/C=C/c1c(OCC#N)nn([C@@H](C)CO)c1CN(C)C[C@H](C)O2 : 7.68

Entry under test: CCOc1nn([C@@H](C)CO)c2c1/C=C/c1n[nH]c3c(C)nc(cc13)-c1c(C)nn(C)c1O[C@H](C)[C@H]1CCCN1C2 . Its pIC50 was 8.22

Value of pIC50 reported for the molecule Cc1nn(C)c2c1-c1cc3c(n[nH]c3cn1)/C=C/c1c(C#N)nn([C@@H](C)CO)c1CN(C)C[C@H](C)O2 is 7.43

Lab book: pIC50 of CC(C)Oc1nn(CCO)c2c1/C=C/c1n[nH]c3cnc(cc13)-c1cnn(C)c1O[C@@H](C)CN(C)C2 noted as 7.54

Form field pIC50, entry CCOc1nn(CCO)c2c1/C=C/c1n[nH]c3cnc(cc13)-c1c(C)nn(C)c1O[C@@H](C)CN(CC)C2 : 8.13

Reported pIC50 for CCOc1nn([C@@H](C)CO)c2c1/C=C/c1n[nH]c3cnc(cc13)-c1c(C)nn(C)c1OC[C@H](C)N(CC)C2 was 7.75

###

# subject-of-test: pEGFR, NCI-H1975 cells (L858R/T790M EGFR) (Homo sapiens, UniProt P00533, L858R/T790M)
# Construct: pEGFR (Tyr1068) TR-FRET
# Sequence (P00533 25-1210 T790M/L858R): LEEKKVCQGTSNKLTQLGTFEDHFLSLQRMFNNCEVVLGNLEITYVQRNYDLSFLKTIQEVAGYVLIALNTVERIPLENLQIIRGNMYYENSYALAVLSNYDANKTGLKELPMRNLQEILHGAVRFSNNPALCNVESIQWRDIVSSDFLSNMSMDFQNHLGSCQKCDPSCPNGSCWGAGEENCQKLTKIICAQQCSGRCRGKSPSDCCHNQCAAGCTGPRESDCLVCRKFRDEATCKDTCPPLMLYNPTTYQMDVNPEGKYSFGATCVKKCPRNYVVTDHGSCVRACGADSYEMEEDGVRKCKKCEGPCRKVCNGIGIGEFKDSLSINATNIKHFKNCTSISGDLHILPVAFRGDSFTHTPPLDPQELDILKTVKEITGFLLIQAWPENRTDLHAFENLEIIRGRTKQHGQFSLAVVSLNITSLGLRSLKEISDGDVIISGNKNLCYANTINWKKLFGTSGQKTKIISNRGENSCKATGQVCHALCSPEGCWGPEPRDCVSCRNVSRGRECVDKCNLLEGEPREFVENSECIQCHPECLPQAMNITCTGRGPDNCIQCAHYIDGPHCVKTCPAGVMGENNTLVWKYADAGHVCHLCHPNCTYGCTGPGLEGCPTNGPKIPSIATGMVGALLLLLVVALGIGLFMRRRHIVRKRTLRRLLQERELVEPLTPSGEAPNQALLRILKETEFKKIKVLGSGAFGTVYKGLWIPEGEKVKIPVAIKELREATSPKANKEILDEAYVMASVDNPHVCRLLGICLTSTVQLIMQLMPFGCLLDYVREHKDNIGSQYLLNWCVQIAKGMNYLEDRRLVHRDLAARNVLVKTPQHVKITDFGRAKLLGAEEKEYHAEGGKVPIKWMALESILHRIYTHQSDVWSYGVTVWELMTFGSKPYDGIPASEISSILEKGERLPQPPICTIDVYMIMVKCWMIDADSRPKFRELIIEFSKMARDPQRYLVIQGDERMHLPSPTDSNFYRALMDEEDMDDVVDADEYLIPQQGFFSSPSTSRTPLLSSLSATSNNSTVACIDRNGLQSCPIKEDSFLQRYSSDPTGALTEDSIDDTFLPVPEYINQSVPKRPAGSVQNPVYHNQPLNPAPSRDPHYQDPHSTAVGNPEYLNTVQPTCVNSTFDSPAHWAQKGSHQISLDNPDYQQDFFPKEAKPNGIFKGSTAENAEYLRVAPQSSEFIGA
# assay-name: Cellular EGFR phosphorylation assay (LANCE Ultra TR-FRET) in NCI-H1975 cells
# Type: cell-based
# assay-conditions: 4 hours at 37° C., read-out: H1975 pEGFR IC50
measured-endpoint: pIC50
Field pIC50 (float): negative decimal logarithm of the concentration in molar.

Record summary for CCc1nn([C@@H](C)CO)c2c1/C=C/c1n[nH]c3cnc(cc13)-c1c(C)nn(C)c1O[C@@H](C)CN(C)C2 : reported pIC50 = 8.69

Per the records, this compound ( CCOc1nn([C@@H](C)CO)c2c1/C=C/c1n[nH]c3c(C)nc(cc13)-c1c(C)nn(C)c1O[C@@H](C)[C@H]1CCCN1C2 ) has pIC50 equal to 8.86

# pIC50 of CCN1Cc2c(c(OC(C)C)nn2CCO)/C=C/c2n[nH]c3cnc(cc23)-c2cnn(C)c2O[C@H](C)C1 = 8.32

CCOc1nn(CCO)c2c1/C=C/c1n[nH]c3c(C)nc(cc13)-c1c(C)nn(C)c1O[C@@H](C)[C@H]1CCCN1C2 has a reported pIC50 of 8.86

Note to self: pIC50 recorded for CCOc1nn(CCO)c2c1/C=C/c1n[nH]c3cnc(cc13)-c1cnn(C)c1O[C@H](C)CN(CC)C2 was 7.96

The value of pIC50 measured for the compound CCN1Cc2c(c(C)nn2CCO)/C=C/c2n[nH]c3cnc(cc23)-c2c(C)nn(C)c2O[C@H](C)C1 turned out to be 8.12

Lab book: pIC50 of CCOc1nn(CCO)c2c1/C=C/c1n[nH]c3cnc(cc13)-c1cnn(C)c1O[C@H](C)CN(C(C)C)C2 noted as 8.44

###

# Tested on: BaF3 cells with engineered EGFR d746-750/T790M
# assay-name: 3-Day CellTiter Glo (CTG) cell proliferation assay, BaF3 EGFR d746-750/T790M
# Type: cell-based
# assay-conditions: Mus musculus; BaF3 EGFR d746-750/T790M cells, 3-day CTG proliferation, 72 hours
measured-endpoint: pIC50
Remember, pIC50 is on a log scale: it is -log10 of the molar concentration.

// pIC50 lookup, compound = CCN(C)c1nn([C@@H](C)CO)c2c1/C=C/c1n[nH]c3cnc(cc13)-c1c(C)nn(C)c1O[C@@H](C)CN(C)C2 , result: 6.16

So, CCOc1nn([C@@H](C)CO)c2c1/C=C/c1n[nH]c3cnc(cc13)-c1c(C)nn(C)c1OC[C@@H](C)N(C1CC1)C2 ? Its pIC50 was 9.11

GET /value?item= Cc1nn(C)c2c1/C=C/c1n[nH]c3c(C)nc(cc13)-c1c(C)nn(C)c1O[C@@H](C)CN(C)C2 &field=pIC50 returns 7.87

###

# subject-of-test: pEGFR, PC-9 cells (d746-750 EGFR) (Homo sapiens, UniProt P00533, DEL746-750)
# Construct: pEGFR (Tyr1068) TR-FRET
# Sequence (P00533 with tags, fused parts or gaps DEL746-750): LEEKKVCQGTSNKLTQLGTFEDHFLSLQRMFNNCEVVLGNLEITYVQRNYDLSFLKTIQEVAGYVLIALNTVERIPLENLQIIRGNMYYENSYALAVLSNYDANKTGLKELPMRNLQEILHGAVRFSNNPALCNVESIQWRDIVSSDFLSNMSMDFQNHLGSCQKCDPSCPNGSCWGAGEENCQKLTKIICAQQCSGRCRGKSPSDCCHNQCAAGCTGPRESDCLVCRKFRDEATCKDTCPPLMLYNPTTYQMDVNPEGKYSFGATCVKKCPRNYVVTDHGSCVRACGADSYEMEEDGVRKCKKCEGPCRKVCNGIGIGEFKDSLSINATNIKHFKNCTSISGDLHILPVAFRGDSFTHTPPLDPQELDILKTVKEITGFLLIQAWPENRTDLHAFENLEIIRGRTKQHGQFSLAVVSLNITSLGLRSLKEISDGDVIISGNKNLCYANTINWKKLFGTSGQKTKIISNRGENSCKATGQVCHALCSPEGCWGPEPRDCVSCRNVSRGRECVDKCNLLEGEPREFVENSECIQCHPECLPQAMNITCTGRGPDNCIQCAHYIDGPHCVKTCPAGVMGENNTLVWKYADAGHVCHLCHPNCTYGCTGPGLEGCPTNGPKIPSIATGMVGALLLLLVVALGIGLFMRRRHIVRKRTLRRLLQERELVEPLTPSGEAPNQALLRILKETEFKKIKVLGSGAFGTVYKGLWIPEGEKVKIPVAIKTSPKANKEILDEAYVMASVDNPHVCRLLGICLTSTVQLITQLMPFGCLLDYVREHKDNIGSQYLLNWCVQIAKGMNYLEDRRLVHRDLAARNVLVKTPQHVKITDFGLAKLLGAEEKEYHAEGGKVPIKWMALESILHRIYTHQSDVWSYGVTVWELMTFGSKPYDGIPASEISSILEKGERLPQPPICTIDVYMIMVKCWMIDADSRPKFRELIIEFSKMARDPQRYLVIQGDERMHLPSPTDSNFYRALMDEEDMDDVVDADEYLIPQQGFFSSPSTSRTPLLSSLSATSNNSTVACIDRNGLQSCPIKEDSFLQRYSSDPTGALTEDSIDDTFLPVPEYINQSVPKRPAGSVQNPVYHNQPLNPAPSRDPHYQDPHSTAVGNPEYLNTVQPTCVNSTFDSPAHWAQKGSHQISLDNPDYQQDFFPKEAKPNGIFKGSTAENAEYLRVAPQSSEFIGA
# assay-name: Cellular EGFR phosphorylation assay (LANCE Ultra TR-FRET) in PC-9 cells
# Format: cell-based
# assay-conditions: 4 hours at 37° C., read-out: PC-9 pEGFR IC50
Lab note: compare IC50 with 2 nM, writing met if less and not met if equal or more.

Is IC50 of [2H]C([2H])([2H])C([2H])([2H])Oc1nn([C@@H](C)CO)c2c1/C=C/c1n[nH]c3cnc(cc13)-c1c(C)nn(C)c1O[C@@H](C)CN(C)C2 [Ex. 87] strictly below 2 nM?
met

API: query returns whether the compound falls strictly under 2 nM in IC50. Query: CCN1Cc2c(c(OCC#N)nn2CCO)/C=C/c2n[nH]c3cnc(cc23)-c2c(C)nn(C)c2O[C@@H](C)C1 [Ex. 23]
not met

State whether 2 nM exceeds IC50 recorded for Cc1nn(CCO)c2c1/C=C/c1n[nH]c3c(C)nc(cc13)-c1c(C)nn(C)c1O[C@@H](C)CN(C(C)C)C2 [Ex. 109] .
not met

I'd appreciate it if you could check whether CCOc1nn(CCO)c2c1/C=C/c1n[nH]c3c(C)nc(cc13)-c1c(C)nn(C)c1OCCN(C)C2 [Ex. 75] has IC50 smaller than 2 nM.
not met

Is IC50 strictly under 2 nM for the entry CCOc1nn(CCO)c2c1/C=C/c1n[nH]c3cnc(cc13)-c1cnn(C)c1O[C@H](C)CN(C(C)C)C2 [Ex. 12] ?
not met

Does the reported IC50 of CCOc1nn(CCO)c2c1/C=C/c1n[nH]c3c(C)nc(cc13)-c1cnn(C)c1O[C@H](C)CN(C)C2 [Ex. 38] stay below 2 nM?
not met

Answer whether the compound CCOc1nn(CCO)c2c1/C=C/c1n[nH]c3c(C)nc(cc13)-c1c(C)nn(C)c1O[C@H](C)[C@H]1CCCN1C2 [Ex. 178] has IC50 strictly less than 2 nM
met

Answer whether the compound CCOc1nn(CCO)c2c1/C=C/c1n[nH]c3cnc(cc13)-c1c(C)nn(C)c1OC[C@H]1CCCN1C2 [Ex. 39] has IC50 strictly less than 2 nM
not met

Consider Cc1nn(C)c2c1-c1cc3c(n[nH]c3cn1)/C=C/c1c(OCC#N)nn(CCO)c1CN1CCC[C@@H]1C(C)O2 (single isomer, unassigned) [Ex. 50] . Does its IC50 lie strictly below 2 nM?
met

Field: below-cutoff. Rule: recorded IC50 strictly less than 2 nM. Subject: CC(C)Oc1nn(CCO)c2c1/C=C/c1n[nH]c3cnc(cc13)-c1cnn(C)c1OC[C@H](C)N(C(C)C)C2 [Ex. 4]
not met

In the record for CCOc1nn([C@@H](C)CO)c2c1/C=C/c1n[nH]c3cnc(cc13)-c1c(C)nn(C)c1O[C@@H](C)[C@H]1CCCN1C2 [Ex. 56] , is IC50 less than 2 nM?
met

Please let me know if CCOc1nn(CCO)c2c1/C=C/c1n[nH]c3cnc(cc13)-c1c(C)nn(C)c1OCCN(C)C2 [Ex. 68] shows IC50 below 2 nM.
not met

Please check: IC50 for CCOc1nn(CCO)c2c1/C=C/c1n[nH]c3c(C)nc(cc13)-c1c(C)nn(C)c1O[C@@H](C)CN(C)C2 [Ex. 47] , strictly under 2 nM or not?
met

Is IC50 of CCOc1nn(CCO)c2c1/C=C/c1n[nH]c3cnc(cc13)-c1c(C)nn(C)c1OC[C@H](C)N(CC)C2 [Ex. 16] strictly below 2 nM?
not met

I'd appreciate it if you could check whether CCOc1nn([C@@H](C)CO)c2c1/C=C/c1n[nH]c3c(C)nc(cc13)-c1c(C)nn(C)c1O[C@@H](C)[C@H]1CCCN1C2 [Ex. 179] has IC50 smaller than 2 nM.
met

Record CCN(C)c1nn([C@@H](C)CO)c2c1/C=C/c1n[nH]c3cnc(cc13)-c1c(C)nn(C)c1O[C@@H](C)CN(C)C2 [Ex. 105] : is its IC50 strictly below 2 nM?
not met

# check: IC50 < 2 nM for CCN1Cc2c(c(OC(C)C)nn2CCO)/C=C/c2n[nH]c3cnc(cc23)-c2cnn(C)c2O[C@H](C)C1 [Ex. 10]
not met

Given CCOc1nn([C@@H](C)CO)c2c1/C=C/c1n[nH]c3cnc(cc13)-c1c(C)nn(C)c1OC[C@H]1CCCN1C2 [Ex. 65] , is recorded IC50 strictly lower than 2 nM?
met

Would you kindly verify if IC50 of CCN1Cc2c(c(OC(C)C)nn2CCO)/C=C/c2n[nH]c3cnc(cc23)-c2cnn(C)c2O[C@@H](C)C1 [Ex. 9] is strictly less than 2 nM?
not met

Please check: IC50 for Cc1nn(CCO)c2c1/C=C/c1n[nH]c3cnc(cc13)-c1c(C)nn(C)c1O[C@H](C)CN(C(C)C)C2 [Ex. 20] , strictly under 2 nM or not?
not met

Decide: IC50 of CCOc1nn(CCO)c2c1/C=C/c1n[nH]c3cnc(cc13)-c1cnn(C)c1O[C@@H](C)CN(C(C)C)C2 [Ex. 11] strictly below 2 nM?
not met

API: query returns whether the compound falls strictly under 2 nM in IC50. Query: Cc1nn(C)c2c1-c1cc3c(n[nH]c3cn1)/C=C/c1c(OCC#N)nn([C@@H](C)CO)c1CN(C)C[C@H](C)O2 [Ex. 53]
not met

I'd appreciate it if you could check whether CCOc1nn([C@@H](C)CO)c2c1/C=C/c1n[nH]c3cnc(cc13)-c1c(C)nn(C)c1O[C@@H](C)CN(C1CC1)C2 [Ex. 110] has IC50 smaller than 2 nM.
met

I'd appreciate it if you could check whether CCOc1nn(CCO)c2c1/C=C/c1n[nH]c3cnc(cc13)-c1c(CC)nn(C)c1O[C@@H](C)CN(CC)C2 [Ex. 74] has IC50 smaller than 2 nM.
met

Threshold test, IC50 < 2 nM: CCOc1nn(CCO)c2c1/C=C/c1n[nH]c3cnc(cc13)-c1cnn(C)c1O[C@@H](C)CN(C1CC1)C2 [Ex. 30]
not met

Please state whether IC50 is below 2 nM for CCOc1nn(CCO)c2c1/C=C/c1n[nH]c3cnc(cc13)-c1c(C)nn(C)c1O[C@@H](C)CN(C(C)C)C2 [Ex. 8]
met

Is IC50 strictly under 2 nM for the entry Cc1nn(C)c2c1-c1cc3c(n[nH]c3cn1)/C=C/c1c(OCC#N)nn([C@@H](C)CO)c1CN1CCC[C@@H]1CO2 [Ex. 64] ?
not met

Taken from patent US20260317344A1.
